- TESTED ON: intrinsic activation complex (factor IXa:factor VIIIa) (Homo sapiens, UniProt P00451+P00740)
- Construct: Factor IXa was produced from contact product (14) and isolated as previously described (12); made in house; host or cells: Factor IXa produced from isolated Factor IX with contact product; Factor VIII was a gift from Rorer Biotechnology, Inc
- Sequence (P00740 47-191 limits assumed): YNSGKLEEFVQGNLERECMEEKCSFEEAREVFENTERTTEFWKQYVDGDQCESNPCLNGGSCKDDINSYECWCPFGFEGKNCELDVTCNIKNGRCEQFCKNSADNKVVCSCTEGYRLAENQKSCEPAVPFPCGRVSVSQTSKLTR
- Sequence (P00740 227-461 limits assumed): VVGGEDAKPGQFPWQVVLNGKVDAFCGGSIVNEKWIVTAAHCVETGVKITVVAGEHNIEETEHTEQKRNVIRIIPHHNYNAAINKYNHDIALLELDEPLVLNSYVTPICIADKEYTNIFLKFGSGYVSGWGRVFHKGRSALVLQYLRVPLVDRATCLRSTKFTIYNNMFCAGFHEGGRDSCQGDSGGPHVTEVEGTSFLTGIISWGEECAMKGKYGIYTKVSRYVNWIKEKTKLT
- Sequence (P00451 20-391 limits assumed): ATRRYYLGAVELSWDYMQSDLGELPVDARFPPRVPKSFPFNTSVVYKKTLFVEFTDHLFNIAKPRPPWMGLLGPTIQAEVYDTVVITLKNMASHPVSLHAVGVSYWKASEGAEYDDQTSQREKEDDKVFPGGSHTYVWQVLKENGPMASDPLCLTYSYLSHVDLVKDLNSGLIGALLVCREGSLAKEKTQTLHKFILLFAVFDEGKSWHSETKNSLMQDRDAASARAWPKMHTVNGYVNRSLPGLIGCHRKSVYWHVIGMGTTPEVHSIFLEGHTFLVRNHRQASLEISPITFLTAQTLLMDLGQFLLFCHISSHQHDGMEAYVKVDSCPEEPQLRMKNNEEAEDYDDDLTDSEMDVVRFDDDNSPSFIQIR
- Sequence (P00451 392-759 limits assumed): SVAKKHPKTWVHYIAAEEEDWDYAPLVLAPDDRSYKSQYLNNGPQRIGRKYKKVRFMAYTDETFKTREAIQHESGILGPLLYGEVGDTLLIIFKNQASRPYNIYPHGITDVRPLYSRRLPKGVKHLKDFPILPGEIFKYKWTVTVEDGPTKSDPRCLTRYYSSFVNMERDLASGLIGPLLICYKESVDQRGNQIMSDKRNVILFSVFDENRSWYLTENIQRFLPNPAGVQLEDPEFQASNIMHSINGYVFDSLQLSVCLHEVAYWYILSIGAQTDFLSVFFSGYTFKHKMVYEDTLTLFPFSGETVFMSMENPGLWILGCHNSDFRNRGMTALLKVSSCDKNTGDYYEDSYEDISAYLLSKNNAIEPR
- Sequence (P00451 1709-2351 limits assumed): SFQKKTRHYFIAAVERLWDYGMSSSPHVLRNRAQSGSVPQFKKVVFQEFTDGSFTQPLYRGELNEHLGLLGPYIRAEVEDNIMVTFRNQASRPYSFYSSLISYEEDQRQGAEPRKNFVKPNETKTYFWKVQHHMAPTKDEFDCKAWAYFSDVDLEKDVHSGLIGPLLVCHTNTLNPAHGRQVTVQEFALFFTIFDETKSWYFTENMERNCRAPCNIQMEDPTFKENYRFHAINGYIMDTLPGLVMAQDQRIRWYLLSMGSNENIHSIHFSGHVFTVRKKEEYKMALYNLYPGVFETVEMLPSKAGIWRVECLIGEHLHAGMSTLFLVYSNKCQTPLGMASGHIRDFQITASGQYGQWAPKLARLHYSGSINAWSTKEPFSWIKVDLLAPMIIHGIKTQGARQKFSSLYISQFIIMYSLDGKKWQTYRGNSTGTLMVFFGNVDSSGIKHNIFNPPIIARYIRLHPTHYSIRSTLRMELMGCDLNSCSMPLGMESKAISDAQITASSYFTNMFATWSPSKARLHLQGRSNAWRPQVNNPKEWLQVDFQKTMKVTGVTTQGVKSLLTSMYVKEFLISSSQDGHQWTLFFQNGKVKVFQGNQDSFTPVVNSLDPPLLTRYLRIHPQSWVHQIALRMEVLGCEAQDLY
- TEST SUMMARY: Rate of Factor Xa formation by the intrinsic activation complex, kinetic chromogenic assay
- Format: biochemical
- ASSAY CONTEXT: Dixon plots, mean ± SD for 4 to 5 determinations; read-out: Ki for Factor X Activation, Intrinsic
Where no end group is shown, it is not given here.
METRIC: pKi
Friendly reminder that pKi comes from taking -log10 of the concentration in mol/L.

Challenge: Endpoint output: pKi of AVLRLKTPITFRMNVAPACL [Peptide 284-303] . Value?
Response given: 5.52

---

- TESTED ON: RVV-X (Daboia siamensis, UniProt Q4PRD1+Q4PRD2+Q7LZ61)
- TEST SUMMARY: biochemical
- Design: species or system Russell's viper
Where no end group is shown, it is not given here.
Response field label takes 1.0 when Factor Xa Formation (% of Control Rate) RVVX is strictly below 80 and 0.0 in all other cases.

Challenge: # TODO verify Factor Xa Formation (% of Control Rate) RVVX < 80 strictly for this substance: AVLRLKTPITFRMNVAPACL [Peptide 284-303]
Response given: 1.0

Challenge: Consider next the substance IVGGQECKDGECPWQA(K) (C-terminal added Lys) [Peptide 195-210 + K] in the same way.
Response given: 1.0

Challenge: Lookup LYQAKRF *EGDRNTEQEEGG(K) [Peptide 238-259 + K]
Response given: 0.0

Challenge: And for CARGYTLADNGKAC [Peptide 111-124] ?
Response given: 1.0

Challenge: Then TEQE*GGEAVHEVEVVIK [Peptide 253-270] ?
Response given: 1.0

---

- TESTED ON: intrinsic activation complex (factor IXa:factor VIIIa) (Homo sapiens, UniProt P00451+P00740)
- Construct: Factor IXa was produced from contact product (14) and isolated as previously described (12); made in house; host or cells: Factor IXa produced from isolated Factor IX with contact product; Factor VIII was a gift from Rorer Biotechnology, Inc
- TEST SUMMARY: Rate of Factor Xa formation by the intrinsic activation complex, kinetic chromogenic assay
- Assay type: biochemical
- ASSAY CONTEXT: 1 mg/ml (0.29-1.1 mM) peptide, 30 min at 37 degrees preincubation
Where no end group is shown, it is not given here.
Consider the following substances; for each one, report its Factor Xa Formation (% of Control Rate) Intrinsic.

Challenge: What Factor Xa Formation (% of Control Rate) Intrinsic value was documented for this substance, CARGYTLADNGKAC [Peptide 111-124] ?
Response given: 121 % of Control Rate

Challenge: Please do the same for LYQAKRF *EGDRNTEQEEGG(K) [Peptide 238-259 + K] as well.
Response given: 71 % of Control Rate

Challenge: Query IVGGQECKDGECPWQA(K) (C-terminal added Lys) [Peptide 195-210 + K] next
Response given: 98 % of Control Rate

Challenge: One more substance: AVLRLKTPITFRMNVAPACL [Peptide 284-303]
Response given: 0 % of Control Rate
